Reported pEC50 values for a set of compounds
biological target: XIAP-Caspase-9 in HEK293-XIAP-Caspase-9 cells (Homo sapiens, UniProt P98170); construct: FLAG; assay: HEK293-XIAP-Caspase-9 immunoprecipitation (IP) MSD assay; settings: compound 2 h at 37° C.; read-out: HEK293-X-C9 IP
Sequence (P98170 whole entry): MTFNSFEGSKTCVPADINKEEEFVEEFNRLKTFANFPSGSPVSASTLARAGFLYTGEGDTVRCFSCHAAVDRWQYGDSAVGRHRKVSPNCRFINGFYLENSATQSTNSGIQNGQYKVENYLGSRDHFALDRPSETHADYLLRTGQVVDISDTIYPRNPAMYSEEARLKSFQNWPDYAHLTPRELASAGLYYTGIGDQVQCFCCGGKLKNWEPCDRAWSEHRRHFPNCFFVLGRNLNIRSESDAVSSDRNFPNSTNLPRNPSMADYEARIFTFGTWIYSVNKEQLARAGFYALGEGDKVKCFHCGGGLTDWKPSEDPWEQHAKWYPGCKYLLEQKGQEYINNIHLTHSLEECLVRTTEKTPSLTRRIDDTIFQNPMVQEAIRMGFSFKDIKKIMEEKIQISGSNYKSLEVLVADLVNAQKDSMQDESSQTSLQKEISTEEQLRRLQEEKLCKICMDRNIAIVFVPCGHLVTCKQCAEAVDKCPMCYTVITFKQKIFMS
Counter-ions that a name gives are not always drawn.
The meaning of pEC50 here: minus log10 of the concentration in molar units.

| Compound | Tested target | pEC50 |
| --- | --- | --- |
| CCCCc1cc2c([nH]c1=O)C(C)(C)CN2C(=O)CN1C[C@@H](C)NC[C@@H]1CN1C[C@H](C)OC[C@H]1C [Example 37, dihydrochloride] | XIAP-Caspase-9 in HEK293-XIAP-Caspase-9 cells (Homo sapiens, UniProt P98170) | 8.13 |
| C[C@@H]1CN(CC(=O)N2CC(C)(C)c3[nH]c(=O)c(Cc4ccc(F)cc4F)cc32)[C@@H](CN2[C@H](C)COC[C@H]2C)CN1 [Example 7, dihydrochloride] | XIAP-Caspase-9 in HEK293-XIAP-Caspase-9 cells (Homo sapiens, UniProt P98170) | 8.92 |

Next item in the queue.
[Q] Returns the measured pEC50 for the input compound. Input: C[C@@H]1CN(CC(=O)N2CC(C)(C)c3nc(C(O)CO)c(Cc4ccc(F)cc4)cc32)[C@@H](CN2[C@H](C)COC[C@H]2C)CN1 (single isomer, unassigned) [Example 21, dihydrochloride]
[A] 8.68
